- measured.target: ghrelin receptor (Homo sapiens, UniProt Q92847)
- Sequence (Q92847 whole entry): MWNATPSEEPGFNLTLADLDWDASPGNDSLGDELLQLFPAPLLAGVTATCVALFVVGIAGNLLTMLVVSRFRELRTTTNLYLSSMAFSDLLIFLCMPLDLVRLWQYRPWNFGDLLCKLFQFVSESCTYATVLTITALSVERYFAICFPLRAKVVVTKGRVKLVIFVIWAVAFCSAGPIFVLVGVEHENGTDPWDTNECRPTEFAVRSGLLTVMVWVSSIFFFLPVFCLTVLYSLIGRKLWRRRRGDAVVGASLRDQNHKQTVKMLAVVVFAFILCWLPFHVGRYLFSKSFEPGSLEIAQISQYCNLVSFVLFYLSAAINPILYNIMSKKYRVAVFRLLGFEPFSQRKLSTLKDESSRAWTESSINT
- test.protocol: Inositol trisphosphate turnover assay in COS-7 cells transfected with the ghrelin receptor
- Format: cell-based
- Design: expressed in transfected cells
measure.name: activity at the ghrelin receptor (in words)

Below, 6 molecules whose answers are already recorded.
CC(C)C[C@H](NC(=O)[C@H](CC(C)C)NC(=O)[C@@H](Cc1c[nH]c2ccccc12)NC(=O)[C@H](Cc1ccccc1)NC(=O)[C@@H](Cc1ccc2ccccc2c1)NC(=O)[C@@H](N)CCCCN)C(N)=O [Peptide 6, K-(D-2-Nal)-FwLL-NH2]	moderate activity
CC(C)C[C@H](NC(=O)[C@H](CC(C)C)NC(=O)[C@@H](Cc1c[nH]c2ccccc12)NC(=O)[C@H](Cc1ccccc1)NC(=O)[C@@H](Cc1ccccc1)NC(=O)[C@@H](N)CCCCN)C(N)=O [Peptide 9, K-(D-Phe)-FwLL-NH2]	moderate activity
CC(C)C[C@H](NC(=O)[C@H](CC(C)C)NC(=O)[C@H](NC(=O)[C@H](Cc1ccccc1)NC(=O)[C@@H](Cc1c[nH]c2ccccc12)NC(=O)[C@@H](N)CCCCN)C(c1ccccc1)c1ccccc1)C(N)=O [Peptide 16, KwF-(D-Dip)-LL-NH2]	no activity
CC(C)C[C@H](NC(=O)[C@H](CC(C)C)NC(=O)[C@@H](Cc1ccc(-c2ccccc2)cc1)NC(=O)[C@H](Cc1ccccc1)NC(=O)[C@@H](Cc1c[nH]c2ccccc12)NC(=O)[C@@H](N)CCCCN)C(N)=O [Peptide 14, KwF-(D-Bip)-LL-NH2]	no activity
CC(C)C[C@H](NC(=O)[C@H](CC(C)C)NC(=O)[C@@H](Cc1c[nH]c2ccccc12)NC(=O)[C@H](Cc1ccccc1)NC(=O)[C@@H](Cc1ccc(-c2ccccc2)cc1)NC(=O)[C@@H](N)CCCCN)C(N)=O [Peptide 8, K-(D-Bip)-FwLL-NH2]	moderate activity
CC(C)C[C@H](NC(=O)[C@H](CC(C)C)NC(=O)[C@@H](Cc1ccc(C(=O)c2ccccc2)cc1)NC(=O)[C@H](Cc1ccccc1)NC(=O)[C@@H](Cc1c[nH]c2ccccc12)NC(=O)[C@@H](N)CCCCN)C(N)=O [Peptide 15, KwF-(D-Bpa)-LL-NH2]	no activity

activity at the ghrelin receptor (in words) reading for CC(C)C[C@H](NC(=O)[C@H](CC(C)C)NC(=O)[C@@H](Cc1c[nH]c2ccccc12)NC(=O)[C@H](Cc1ccccc1)NC(=O)[C@@H](Cc1ccc(C(=O)c2ccccc2)cc1)NC(=O)[C@@H](N)CCCCN)C(N)=O [Peptide 7, K-(D-Bpa)-FwLL-NH2] : moderate activity

###

So I've got a bunch of molecules here, and I need their Emax ± SEM values.
- measured.target: ghrelin receptor (Homo sapiens)
- test.protocol: Inositol trisphosphate turnover assay in COS-7 cells transfected with the ghrelin receptor
- Format: cell-based
- Set-up: expressed in transfected cells
- condition.notes: efficacy, inverse agonistic activity; difference to constitutive activity (Table 2)

The recorded Emax ± SEM with ghrelin receptor (Homo sapiens) for CC(C)C[C@H](NC(=O)[C@H](CC(C)C)NC(=O)[C@@H](Cc1c[nH]c2ccccc12)NC(=O)[C@H](Cc1ccccc1)NC(=O)[C@@H](Cc1ccc2ccccc2c1)NC(=O)[C@@H](N)CCCCN)C(N)=O [Peptide 6, K-(D-2-Nal)-FwLL-NH2] was 66 ± 4 Δ %

Entry CC(C)C[C@H](NC(=O)[C@H](CC(C)C)NC(=O)[C@@H](Cc1c[nH]c2ccccc12)NC(=O)[C@H](Cc1ccccc1)NC(=O)[C@H](NC(=O)[C@@H](N)CCCCN)C(c1ccccc1)c1ccccc1)C(N)=O [Peptide 5, K-(D-Dip)-FwLL-NH2] , ghrelin receptor (Homo sapiens) data, Emax ± SEM value: 87 ± 2 Δ %

So the reported Emax ± SEM for CC(C)C[C@H](NC(=O)[C@H](CC(C)C)NC(=O)[C@@H](Cc1c[nH]c2ccccc12)NC(=O)[C@H](Cc1ccccc1)NC(=O)[C@@H](Cc1ccc(C(=O)c2ccccc2)cc1)NC(=O)[C@@H](N)CCCCN)C(N)=O [Peptide 7, K-(D-Bpa)-FwLL-NH2] , on ghrelin receptor (Homo sapiens), turned out to be 67 ± 7 Δ %

Observed Emax ± SEM on ghrelin receptor (Homo sapiens), entry CC(C)C[C@H](NC(=O)[C@H](CC(C)C)NC(=O)[C@@H](Cc1c[nH]c2ccccc12)NC(=O)[C@H](Cc1ccccc1)NC(=O)[C@@H](Cc1ccc(-c2ccccc2)cc1)NC(=O)[C@@H](N)CCCCN)C(N)=O [Peptide 8, K-(D-Bip)-FwLL-NH2] , equals 82 ± 0 Δ %

The recorded Emax ± SEM with ghrelin receptor (Homo sapiens) for CC(C)C[C@H](NC(=O)[C@H](CC(C)C)NC(=O)[C@@H](Cc1c[nH]c2ccccc12)NC(=O)[C@H](Cc1ccccc1)NC(=O)[C@@H](Cc1ccccc1)NC(=O)[C@@H](N)CCCCN)C(N)=O [Peptide 9, K-(D-Phe)-FwLL-NH2] was 62 ± 4 Δ %

Log: ghrelin receptor (Homo sapiens), molecule CC(C)C[C@H](NC(=O)[C@H](CC(C)C)NC(=O)[C@@H](Cc1c[nH]c2ccccc12)NC(=O)[C@H](Cc1ccccc1)NC(=O)[C@@H](Cc1c[nH]c2ccccc12)NC(=O)[C@@H](N)CCCCN)C(N)=O [Peptide 2, KwFwLL-NH2, reference compound] , Emax ± SEM = 37 ± 5 Δ %
